# test: chemical genetic growth profiling, strain panel (AID 1159580);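 also: tested at 20 µM; growth read once vehicle control cultures reached saturation at 30 °C; 1 = growth at the plate median or of vehicle wells; lower values mean less growth of the strain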
# condition_info: S. cerevisiae deletion strains, growth OD, locus YKR026C, strain gcn3, active compounds read low
Among all 5,500 compounds or so, about 2,000 (36%) were called active. Another 18% or so got no clear call; they are omitted. Some of the results follow. Where a SMILES comes first, the peptide text is derived from it. Bridges are numbered along the chain shown (N, C = ends). [ ]: non-standard residue; d: D form. The star is where a group is joined. Octanoyl(6-Me) = CCC(C)CCCCC(=O)*; Orn = NCCC[CH](N)C(=O)O; Dab = NCC[CH](N)C(=O)O
As shown below, each of these compounds has a reported normalized growth value.
value_kind: normalized growth

>>> endpoint_result("CC(C)CC1NC(=O)C(CCCN)NC(=O)C(C(C)C)NC(=O)C2CCCN2C(=O)C(Cc2ccccc2)NC(=O)C(CC(C)C)NC(=O)C(CCCN)NC(=O)C(C(C)C)NC(=O)C2CCCN2C(=O)C(Cc2ccccc2)NC1=O (stereo not given) (cyclo(FPV[Orn]LFPV[Orn]L); configuration not given here)")
1.04
>>> endpoint_result("CC1(C)C(=O)[C@@H]2C[C@@]3(O)C4=CC(=O)O[C@@H](c5ccoc5)[C@]4(C)CCC3[C@@](C)(C2=O)[C@H]1CC(=O)O (stereo not given in full)")
1.01
>>> endpoint_result("CCC(C)CCCCC(=O)NC(CCN)C(=O)NC(C(=O)NC(CCN)C(=O)NC1CCNC(=O)C(C(C)O)NC(=O)C(CCN)NC(=O)C(CCN)NC(=O)C(CC(C)C)NC(=O)C(Cc2ccccc2)NC(=O)C(CCN)NC1=O)C(C)O (stereo not given) ({Octanoyl(6-Me)}-[Dab]T[Dab][Dab][Dab]FL[Dab][Dab]T; lactam 4-C; configuration not given here)")
1
>>> endpoint_result("CC[C@H]1OC(=O)[C@H](C)[C@@H](O[C@H]2C[C@@](C)(OC)[C@@H](O)[C@H](C)O2)[C@H](C)[C@@H](O[C@@H]2O[C@H](C)C[C@H](N(C)C)[C@H]2O)[C@](C)(O)C[C@@H](C)[C@@H]2N[C@@H](COCCOC)O[C@H]([C@H]2C)[C@]1(C)O")
0.987
>>> endpoint_result("CCc1cccc2c3c([nH]c12)C(CC)(CC(=O)O)OCC3 (stereo not given)")
0.987

Numbers sourced from PubChem BioAssay AID1159580.
